Read-out: CYP4A11 (gene 1579)
assay_remarks: LTEA_HepaRG_CYP4A11: Life Technologies and Expression Analysis (LTEA) Assay for CYP4A11 using HepaRG (AID 2283486)
condition_notes: mRNA level, 48 h; actives raise or lower the signal
Procedure: LTEA_HepaRG is a cell based, multiplexed-readout assay that uses HepaRG, a human liver cell line, with measurements taken at 48 hours after chemical dosing on a 96-well plate.LTEA_HepaRG_CYP4A11 is one of 102 assay component(s) measured in the LTEA HepaRG cell culture assay. It is a marker of NR mediated metabolism.Data from the assay component LTEA_HepaRG_CYP4A11 was analyzed into 1 endpoint. […]
The source made the active and inactive calls. How the source made its calls: active means hit-call score of the fitted dose curve at least 0.9, where 1 is the maximum; inactive means score below 0.9.
reported_property: AC50

test_smiles=C=CC(=O)OCCCCCC(C)C reported_property=AC50 result=inactive
test_smiles=CCC(C)(C)c1ccc(O)c(C(C)(C)CC)c1 reported_property=AC50 result=inactive
test_smiles=O=[N+]([O-])c1ccc(O)c([N+](=O)[O-])c1 reported_property=AC50 result="31.5 µM (active)"
